- Target of assay: S1P5 receptors (Homo sapiens, UniProt Q9H228)
- Sequence (Q9H228 whole entry): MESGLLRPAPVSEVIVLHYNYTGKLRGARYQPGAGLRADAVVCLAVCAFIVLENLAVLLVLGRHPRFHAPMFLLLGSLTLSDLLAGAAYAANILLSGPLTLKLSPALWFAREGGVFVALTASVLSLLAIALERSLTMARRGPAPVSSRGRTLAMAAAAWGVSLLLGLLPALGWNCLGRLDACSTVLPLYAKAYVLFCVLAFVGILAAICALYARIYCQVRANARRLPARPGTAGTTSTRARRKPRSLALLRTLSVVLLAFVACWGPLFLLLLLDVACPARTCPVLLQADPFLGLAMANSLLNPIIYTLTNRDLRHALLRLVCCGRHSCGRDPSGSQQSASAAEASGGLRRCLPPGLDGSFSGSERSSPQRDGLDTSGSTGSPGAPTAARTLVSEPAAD
- Run description: [35S]-GTPγS binding assay on CHO-S1P5 membranes (S1P5 agonism)
- Measurement context: membranes of CHO cells expressing recombinant S1P5; measure of S1P5 agonism
pEC50: −log10 of the molar value.
Assign pEC50 to each entry below.

Past entries and their recorded results:
# Compound, pEC50
data = [
    ("Cc1cc(OCc2c(Cl)cccc2Cl)cc2c1C(N1CC(C)(O)C1)CC2 (single isomer, unassigned) [Compound 15a]", "8.00 to 9.00"),
    ("CC1(O)CN(Cc2ccc(C3CN(c4c(Cl)cccc4Cl)C3)nc2)C1", "5.00 to 6.00"),
    ("Cc1cc(CN2CC(C)(O)C2)cc(C)c1C1CN(c2c(Cl)cccc2Cl)C1", "7.00 to 8.00"),
    ("Cc1cc2c(cc1OCc1c(Cl)cccc1Cl)CCC2N1CC(C)(O)C1 (single isomer, unassigned) [Compound 24b]", "8.00 to 9.00"),
    ("Cc1c(CCc2c(Cl)cccc2Cl)ccc2c1CCC2N1CC(C)(O)C1 (single isomer, unassigned) [Compound 18a]", "8.00 to 9.00"),
]

Batch lookup, pEC50 per entry.
1. CC1(O)CN(C2CCc3cc(-c4ccc(C5CC5)c(F)c4)ccc32)C1 (single isomer, unassigned) [Compound 4a]
2. CC1(O)CN(Cc2ccc(C3CN(c4c(Cl)cccc4Cl)C3)cc2F)C1

Response line:
["7.00 to 8.00", "6.00 to 7.00"]

====

- Target of assay: S1P5 receptors (Homo sapiens, UniProt Q9H228)
- Run description: [35S]-GTPγS binding assay on CHO-S1P5 membranes (S1P5 agonism)
- Measurement context: membranes of CHO cells expressing recombinant S1P5; measure of S1P5 agonism
pEC50: −log10 of the molar value.
Readout label: pEC50

Past entries and their recorded results:
# Compound, Readout label, Assay value
records = [
    ("Cc1c(OCc2c(Cl)cccc2Cl)ccc2c1CCC2N1CC(C)(O)C1 (single isomer, unassigned) [Compound 19a]", "pEC50", "8.00 to 9.00"),
    ("CC1(O)CN(C2CCc3cc(-c4ccc(C5CC5)c(F)c4)ccc32)C1 (single isomer, unassigned) [Compound 4b]", "pEC50", "6.00 to 7.00"),
    ("CC1(O)CN(C2CCc3cc(C#Cc4ccccc4F)ccc32)C1 (single isomer, unassigned) [Compound 1b]", "pEC50", "7.00 to 8.00"),
    ("Cc1cc(C2CN(c3ccc(C4CC4)c(Cl)c3)C2)cc(C)c1CN1CC(C)(O)C1", "pEC50", "6.00 to 7.00"),
    ("CC1(O)CN(C2CCc3cc(C#Cc4cccc(F)c4)ccc32)C1 (single isomer, unassigned) [Compound 2a]", "pEC50", "6.00 to 7.00"),
    ("CC1(O)CN(C2CCc3cc(OCc4c(Cl)cccc4Cl)ccc32)C1 (single isomer, unassigned) [Compound 3a]", "pEC50", "8.00 to 9.00"),
]

The compound identified as `CC1(O)CCN(Cc2ccc(C3CN(c4c(Cl)cccc4Cl)C3)cc2)CC1` registered its pEC50 at 5.00 to 6.00

====

- Target of assay: S1P5 receptors (Homo sapiens, UniProt Q9H228)
- Run description: [35S]-GTPγS binding assay on CHO-S1P5 membranes (S1P5 agonism)
- Measurement context: membranes of CHO cells expressing recombinant S1P5; measure of S1P5 agonism
pEC50: −log10 of the molar value.
Readout label: pEC50

Past entries and their recorded results:
# Compound, Readout label, Assay value
records = [
    ("Cc1cc2c(cc1C#Cc1cccc(F)c1)CCC2N1CC(C)(O)C1 (single isomer, unassigned) [Compound 22a]", "pEC50", "7.00 to 8.00"),
    ("Cc1cc(OCc2c(Cl)cccc2Cl)cc2c1C(N1CC(C)(O)C1)CC2 (single isomer, unassigned) [Compound 15b]", "pEC50", "8.00 to 9.00"),
    ("Cc1c(CCc2c(Cl)cccc2Cl)ccc2c1CCC2N1CC(C)(O)C1 (single isomer, unassigned) [Compound 18b]", "pEC50", "8.00 to 9.00"),
    ("Cc1cc2c(cc1OCc1c(Cl)cccc1Cl)CCC2N1CC(C)(O)C1 (single isomer, unassigned) [Compound 24a]", "pEC50", "8.00 to 9.00"),
    ("Cc1cc(N2CC(c3c(Cl)cccc3Cl)C2)cc(C)c1CN1CCC(C)(O)CC1 [Compound 36]", "pEC50", "6.00 to 7.00"),
    ("Cc1cc(C2CN(c3c(Cl)cccc3Cl)C2)cc(C2CC2)c1CN1CC(C)(O)C1 [Compound 54]", "pEC50", "7.00 to 8.00"),
    ("Cc1cc(C2CN(c3ccccc3)C2)cc(C)c1CN1CC(C)(O)C1 [Compound 43]", "pEC50", "5.00 to 6.00"),
]

Now for a further compound.
GET /values?item= Cc1cc(C2CN(c3c(Cl)cccc3Cl)C2)cc(C)c1CN1CC(O)(C(F)F)C1 [Compound 40] &system= S1P5 receptors (Homo sapiens, UniProt Q9H228) returns pEC50: 6.00 to 7.00

====

Assign pEC50 to each entry below.
- Target of assay: S1P5 receptors (Homo sapiens, UniProt Q9H228)
- Run description: [35S]-GTPγS binding assay on CHO-S1P5 membranes (S1P5 agonism)
- Measurement context: membranes of CHO cells expressing recombinant S1P5; measure of S1P5 agonism
pEC50: −log10 of the molar value.

# Compound, pEC50
data = [
    ("CC1(O)CN(Cc2ccc(C3CN(c4c(Cl)cccc4Cl)C3)cn2)C1 [Compound 59]", "6.00 to 7.00"),
    ("CC(C)c1cc(C2CN(c3c(Cl)cccc3Cl)C2)cc(C(C)C)c1CN1CC(C)(O)C1 [Compound 53]", "5.00 to 6.00"),
    ("Cc1cc2c(c(C)c1-c1ccc(C3CC3)c(Cl)c1)CCC2N1CC(C)(O)C1 (single isomer, unassigned) [Compound 25a]", "8.00 to 9.00"),
    ("Cc1c(-c2ccc(C3CC3)c(Cl)c2)cc2c(c1C)C(N1CC(C)(O)C1)CC2 (single isomer, unassigned) [Compound 27b]", "7.00 to 8.00"),
    ("Cc1cc(C2CN(c3ccccc3F)C2)cc(C)c1CN1CC(C)(O)C1 [Compound 44]", "5.00 to 6.00"),
    ("Cc1cc(N2CC(c3c(Cl)cccc3Cl)C2)c(C)cc1CN1CC(C)(O)C1 [Compound 62]", "8.00 to 9.00"),
    ("Cc1cc(C#Cc2cccc(F)c2)cc2c1C(N1CC(C)(O)C1)CC2 (single isomer, unassigned) [Compound 13a]", "7.00 to 8.00"),
    ("Cc1cc2c(cc1-c1ccc(C3CC3)c(Cl)c1)CCC2N1CC(C)(O)C1 (single isomer, unassigned) [Compound 21a]", "7.00 to 8.00"),
    ("Cc1cc(C2CN(c3c(Cl)cccc3Cl)C2)c(C)cc1CN1CC(C)(O)C1 [Compound 56]", "7.00 to 8.00"),
    ("Cc1cc(N2CC(c3c(Cl)cccc3Cl)C2)cc(C)c1CN1CC(C)(O)C1 [Compound 37]", "8.00 to 9.00"),
]

Batch lookup, pEC50 per entry.
1. Cc1c(OCc2c(Cl)cccc2Cl)ccc2c1CCC2N1CC(C)(O)C1 (single isomer, unassigned) [Compound 19b]
2. CC1(O)CN(C2CCc3cc(C#Cc4cccc(F)c4)ccc32)C1 (single isomer, unassigned) [Compound 2b]

Response line:
["8.00 to 9.00", "7.00 to 8.00"]

Batch lookup, pEC50 per entry.
1. Cc1cc2c(cc1-c1ccc(C3CC3)c(Cl)c1)CCC2N1CC(C)(O)C1 (single isomer, unassigned) [Compound 21b]
2. Cc1cc(-c2ccc(C3CC3)c(Cl)c2)cc2c1C(N1CCC(C)(O)C1)CC2 (stereo not drawn) [Compound 12]
3. CC1(O)CN(Cc2ccc(N3CC(c4c(Cl)cccc4Cl)C3)nc2)C1 [Compound 64]

Response line:
1: 8.00 to 9.00; 2: 6.00 to 7.00; 3: 6.00 to 7.00
